target.or.system: human A2AR (Homo sapiens, UniProt P29274)
Sequence (P29274 whole entry): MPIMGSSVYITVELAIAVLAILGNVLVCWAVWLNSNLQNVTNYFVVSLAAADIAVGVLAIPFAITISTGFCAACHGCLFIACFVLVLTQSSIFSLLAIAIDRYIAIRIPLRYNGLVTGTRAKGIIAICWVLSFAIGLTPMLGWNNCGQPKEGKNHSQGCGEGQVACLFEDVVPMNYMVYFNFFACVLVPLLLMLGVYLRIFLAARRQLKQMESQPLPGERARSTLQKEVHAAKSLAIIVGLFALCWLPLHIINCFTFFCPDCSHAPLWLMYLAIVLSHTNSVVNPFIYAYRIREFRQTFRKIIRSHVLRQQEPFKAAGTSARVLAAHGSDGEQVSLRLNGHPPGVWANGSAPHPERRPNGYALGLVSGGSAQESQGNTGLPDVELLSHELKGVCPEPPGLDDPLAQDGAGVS
endpoint.label: pKi
Answer as the number alone; pKi is minus log10 of concentration in mol/L.

compound	pKi
OC[C@H]1O[C@@H](n2cnc3c(NCCc4c[nH]c5ccccc45)ncnc32)[C@H](O)[C@@H]1O [JMF1907, N^6-[2-(indol-3-yl)ethyl]adenosine]	5.36

Now for a further compound.
The value of pKi measured for the compound OC[C@H]1O[C@@H](n2cnc3c(NCc4ccc(Br)s4)ncnc32)[C@H](O)[C@@H]1O [JMF3464, N^6-[(5-bromothien-2-yl)methyl]adenosine] turned out to be 5.77
